These data points were gathered from patent US6620828B2.

Target: phosphorylated VEGF-R2Δ50 (FLVK-P) (Homo sapiens, UniProt P35968, DEL940-989/E990V)
Construct: VEGF-R2Δ50 contains residues 806-939 and 990-1171; made in house; host or cells: baculovirus/insect cells
Sequence (P35968 with tags, fused parts or gaps DEL940-989/E990V limits assumed): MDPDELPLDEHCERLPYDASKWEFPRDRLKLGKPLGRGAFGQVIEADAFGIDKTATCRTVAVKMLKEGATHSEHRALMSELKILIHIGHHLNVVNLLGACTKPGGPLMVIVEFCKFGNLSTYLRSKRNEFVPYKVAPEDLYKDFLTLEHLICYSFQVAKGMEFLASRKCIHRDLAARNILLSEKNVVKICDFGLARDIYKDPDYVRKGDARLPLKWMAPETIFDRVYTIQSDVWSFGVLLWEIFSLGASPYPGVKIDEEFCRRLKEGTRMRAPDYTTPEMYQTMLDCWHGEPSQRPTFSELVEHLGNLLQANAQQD
Experiment: VEGF-R2 coupled spectrophotometric (FLVK-P) assay
Format: biochemical
Conditions: read-out: VEGF % inhibition at 20 μM, 20 μM; combinatorial library compounds
Please provide measured inhibition at 20 µM for the entries that follow.
Numbers only, in %.

Cc1c(-c2csc(-c3sc(Nc4ccc(S(N)(=O)=O)cc4)nc3N)n2)sc2ccc(Cl)cc12 [drawing 424] :: 23
CN(C)c1ccc(Nc2nc(N)c(-c3nc(-c4ccc(-c5ccccc5)cc4)cs3)s2)cc1 :: -12
Cc1ccc(-c2csc(-c3sc(Nc4ccc(S(N)(=O)=O)cc4)nc3N)n2)c(C)c1 :: 50
CC(C)c1ccc(Nc2nc(N)c(-c3nc(-c4ccc(C#N)cc4)cs3)s2)cc1 :: 7
Cc1c(C)c(C)c(-c2csc(-c3sc(Nc4ccc(S(N)(=O)=O)cc4)nc3N)n2)c(C)c1C :: 33

Batch request: inhibition at 20 µM per item, same order as input.
1. CC(=O)Oc1ccccc1-c1csc(-c2sc(Nc3ccc(S(N)(=O)=O)cc3)nc2N)n1
2. CN(C)c1ccc(Nc2nc(N)c(-c3nc(-c4ccc(Cl)cc4Cl)cs3)s2)cc1
3. CN(C)c1ccc(Nc2nc(N)c(-c3nc(-c4ccccc4OC(=O)c4ccccc4)cs3)s2)cc1
4. CCCCCc1ccc(-c2csc(-c3sc(Nc4ccc(N(C)C)cc4)nc3N)n2)cc1

Solution:
[33, 19, 23, -8]

---

Biological target: CHK1 (Homo sapiens, UniProt O14757)
Sequence (O14757 whole entry): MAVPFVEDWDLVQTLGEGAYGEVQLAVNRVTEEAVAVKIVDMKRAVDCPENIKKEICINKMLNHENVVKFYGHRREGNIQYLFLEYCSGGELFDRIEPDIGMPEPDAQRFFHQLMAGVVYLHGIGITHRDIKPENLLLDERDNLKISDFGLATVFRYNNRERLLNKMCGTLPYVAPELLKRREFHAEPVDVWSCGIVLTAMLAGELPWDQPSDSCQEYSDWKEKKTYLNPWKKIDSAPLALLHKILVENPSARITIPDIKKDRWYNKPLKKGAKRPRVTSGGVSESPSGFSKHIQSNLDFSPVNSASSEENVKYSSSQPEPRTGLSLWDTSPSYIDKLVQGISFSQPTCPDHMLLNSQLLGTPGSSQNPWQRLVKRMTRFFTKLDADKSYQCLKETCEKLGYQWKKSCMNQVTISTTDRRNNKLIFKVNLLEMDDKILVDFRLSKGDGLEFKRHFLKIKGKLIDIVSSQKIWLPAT
Test: CHK1 high-throughput screening
Type: biochemical
Details: read-out: % inhibition @ 20 μM, Table 4, repeated entries per example
Please provide measured inhibition at 20 µM for the entries that follow.
Numbers only, in %.

Nc1nc(Nc2ccc3c(c2)OCO3)sc1-c1nc(-c2cccc(NC(=O)c3ccccc3)c2)cs1 [A(41)] :: 3.8

Batch request: inhibition at 20 µM per item, same order as input.
1. CNc1nc(N)c(-c2nc(-c3cccc(O)c3)cs2)s1 [A(30)]
2. Nc1nc(Nc2ccc3c(c2)OCCO3)sc1-c1nc(-c2cccc(NC(=O)c3ccccc3)c2)cs1 [A(45)]
3. Nc1nc(Nc2ccc3c(c2)CCC3)sc1-c1nc(-c2cccc(NC(=O)c3ccccc3)c2)cs1 [A(43)]
4. Nc1nc(Nc2ccc3c(=O)[nH][nH]c(=O)c3c2)sc1-c1nc(-c2cccc(NC(=O)c3ccccc3)c2)cs1 [A(49)]
5. CC(=O)c1ccc(Nc2nc(N)c(-c3nc(-c4cccc(NC(=O)c5ccccc5)c4)cs3)s2)cc1 [A(58)]
6. Nc1nc(Nc2ccc(S(N)(=O)=O)cc2)sc1-c1nc(-c2cccc(C(=O)O)c2)cs1 [A(21)]
7. Cc1cccc(Nc2nc(N)c(-c3nc(-c4cccc(NC(=O)c5ccccc5)c4)cs3)s2)c1 [A(44)]

Solution:
1: 3.4; 2: -1; 3: -3; 4: 14.1; 5: -7.2; 6: -7.2; 7: -7.1

---

Biological target: FGF-R1 (Homo sapiens, UniProt P11362, C488A/C584S/L457V)
Construct: starting from the endogenous methionine residue 456 to glutamate 766; made in house; host or cells: baculovirus vector expression system
Sequence (P11362 456-766 L457V/C488A/C584S): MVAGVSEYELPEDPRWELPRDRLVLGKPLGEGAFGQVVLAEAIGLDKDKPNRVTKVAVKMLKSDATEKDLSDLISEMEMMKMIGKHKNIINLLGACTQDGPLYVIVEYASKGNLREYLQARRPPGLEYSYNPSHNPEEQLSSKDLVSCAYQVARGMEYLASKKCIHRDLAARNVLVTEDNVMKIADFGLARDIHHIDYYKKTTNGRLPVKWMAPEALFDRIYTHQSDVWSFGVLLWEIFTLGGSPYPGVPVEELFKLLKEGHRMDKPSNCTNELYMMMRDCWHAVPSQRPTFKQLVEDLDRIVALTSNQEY
Experiment: FGF-R spectrophotometric assay
Format: biochemical
Details: Table 3; % inh @ 1 uM; read-out: FGF-P Ki (nM) (% inh @ 1 uM)
PROPERTY: inhibition at 1 µM (%)
Give bare numbers, in %.

COc1cc(Nc2nc(N)c(-c3nc(-c4cccc(NC(=O)c5cc(C)c(O)c(C)c5)c4)cs3)s2)cc(OC)c1OC :: 23
CCn1nc(C)cc1C(=O)Nc1ccc(C)c(-c2noc(-c3sc(Nc4cccc(CN5CCCC5)c4)nc3N)n2)c1 :: 78
Cc1cccc(C(=O)Nc2cccc(-c3noc(-c4sc(NC(=O)NC(C)C)nc4N)n3)c2)c1 :: 25
COc1cc(Nc2nc(N)c(-c3nc(-c4cccc(NC(=O)c5ncoc5-c5ccccc5)c4)cs3)s2)cc(OC)c1OC :: 9
COc1cc(Nc2nc(N)c(-c3nc(-c4cc(NC(=O)OC(C)(C)C)c(F)cc4Cl)no3)s2)cc(OC)c1OC :: 46

Moving on to the next molecule.
// inhibition at 1 µM lookup, molecule = COc1cccc(C(=O)Nc2cc(-c3noc(-c4sc(NC(=O)NCCCN5CCCC5=O)nc4N)n3)c(F)cc2F)c1 , result: 28
